Data origin, for the record: patent US20090204336A1

molecular target: PDZ-domain of the protein AF6 (Homo sapiens, UniProt P55196); construct: The ubiquitarily 15N marked PDZ-domains of the proteins AF6; made in house; test: 15N-HSQC NMR binding assay (chemical shift comparison with and without test ligand); conditions: 8 to 10-fold molar excess of test ligand, 50 μM protein
Sequence (P55196 1007-1093 limits assumed): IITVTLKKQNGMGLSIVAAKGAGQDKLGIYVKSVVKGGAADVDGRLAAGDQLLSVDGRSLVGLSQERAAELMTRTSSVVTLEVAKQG
endpoint: binding to the PDZ-domain of the protein AF6 (binding / non-binding)

Before answering, review these 4 worked examples.
compound=O=C1NC(=S)SC1=Cc1cccc(C(F)(F)F)c1 reported=binding
compound=CC(C)C=C1SC(=O)NC1=O reported="show a binding"
compound="O=C1NC(=S)SC1Cc1ccsc1 (centres unmarked)" reported="show a binding"
compound=CN1C(=O)C(=Cc2cccc(C(F)(F)F)c2)SC1=S reported=non-binding

For every record below, what is its binding to the PDZ-domain of the protein AF6 (binding / non-binding)?
1. NC1=NC(=O)C(=Cc2ccsc2)S1
2. O=C1NC(=S)SC1Cc1ccccc1 (centres unmarked)

1. non-binding
2. show a binding

For every record below, what is its binding to the PDZ-domain of the protein AF6 (binding / non-binding)?
1. O=C1NC(=S)SC1Cc1ccoc1 (centres unmarked)
2. CN1C(=O)C(=Cc2ccc(C(F)(F)F)cc2)SC1=S
3. O=C1NC(=S)SC1=Cc1ccsc1

1: show a binding; 2: non-binding; 3: binding
